Source: patent US20070249706A1

Target: ERβ (Homo sapiens, UniProt Q92731)
Construct: purchased Panvera P2700
Sequence (Q92731 whole entry): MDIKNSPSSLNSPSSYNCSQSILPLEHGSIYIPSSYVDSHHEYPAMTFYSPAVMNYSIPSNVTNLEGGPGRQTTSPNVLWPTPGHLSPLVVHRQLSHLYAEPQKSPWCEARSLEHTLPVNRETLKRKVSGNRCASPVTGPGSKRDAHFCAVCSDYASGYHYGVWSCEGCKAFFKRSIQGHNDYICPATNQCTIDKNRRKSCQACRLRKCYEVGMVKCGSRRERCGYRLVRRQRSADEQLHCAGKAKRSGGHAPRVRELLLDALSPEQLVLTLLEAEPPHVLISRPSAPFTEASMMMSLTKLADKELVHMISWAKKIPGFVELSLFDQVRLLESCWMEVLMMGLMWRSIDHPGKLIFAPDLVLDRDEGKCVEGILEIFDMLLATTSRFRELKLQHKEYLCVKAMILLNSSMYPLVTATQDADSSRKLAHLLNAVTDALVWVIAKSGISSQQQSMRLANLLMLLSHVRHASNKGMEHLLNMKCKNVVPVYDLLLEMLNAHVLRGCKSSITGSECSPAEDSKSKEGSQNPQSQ
Test: Fluorescence Polarization Competition Assay, ERβ binding (Panvera kit)
Settings: ER; fluorescence polarization competition
// classify: if (IC50 < 20 nM) Yes else No

See these solved cases before continuing.
                                structure                              target  label_class
0  OCc1cc(Br)c(-c2ccc(O)cc2)c(-c2ccoc2)c1  ERβ (Homo sapiens, UniProt Q92731)          Yes
1        OCc1cc(Cl)c(-c2ccc(O)cc2)c(Cl)c1  ERβ (Homo sapiens, UniProt Q92731)          Yes
2  OCc1cc(Br)c(-c2ccc(O)cc2)c(-n2cccc2)c1  ERβ (Homo sapiens, UniProt Q92731)          Yes
3        OCc1cc(Br)c(-c2ccc(O)cc2)c(Br)c1  ERβ (Homo sapiens, UniProt Q92731)          Yes

Now consider a different compound.
For this compound, is IC50 lower than 20 nM? `CN(C)c1cc(CO)cc(Br)c1-c1ccc(O)cc1`
No
